# method_notes: Selectivity ratio of IC50 for human Jurkat cells to IC50 for human PHA-stimulated PBL cells
# Format: ADME, cell-based
# protocol_conditions: Jurkat cells and PHA-stimulated PBL cells, read-out: Ratio IC50
recorded_metric: selectivity ratio

{"given_smiles": "COC(=O)c1sc2cc(OC)ccc2c1Nc1cc(OC)c(OC)c(OC)c1", "value_reported": 2000}

----------
# method_notes: Cytotoxicity against human LoVo/DX cells after 72 hrs by MTT assay
# Format: functional, cell-based
pIC50: −log10 of the molar value.

{"given_smiles": "COc1cccc2c1C(=O)c1c(O)c3c(c(O)c1C2=O)C[C@@](O)(C(=O)CO)C[C@@H]3O[C@H]1C[C@H](N)[C@H](O)[C@H](C)O1", "pIC50": 4.95}
{"given_smiles": "COC(=O)c1sc2cc(OC)ccc2c1Nc1cc(OC)c(OC)c(OC)c1", "pIC50": 9.40}
{"given_smiles": "COC(=O)c1sc2nc(C)ccc2c1Nc1cc(OC)c(OC)c(OC)c1", "pIC50": 9.30}

----------
# method_notes: Inhibition of bovine brain tubulin polymerization after 20 mins by turbidimetric analysis
# Parameters: species or system Bos taurus
pIC50: −log10 of the molar value.
As shown below, each of these compounds has a reported pIC50 value.

{"given_smiles": "COC(=O)c1sc2c(OC)cccc2c1Nc1cc(OC)c(OC)c(OC)c1", "pIC50": 6.12}
{"given_smiles": "COC(=O)c1sc2cc(C)ccc2c1Nc1cc(OC)c(OC)c(OC)c1", "pIC50": 5.92}
{"given_smiles": "CCOC(=O)c1sc2cc(OC)ccc2c1Nc1cc(OC)c(OC)c(OC)c1", "pIC50": 6.09}
{"given_smiles": "CCOC(=O)c1sc2cc(C)ccc2c1Nc1cc(OC)c(OC)c(OC)c1", "pIC50": 5.96}
{"given_smiles": "COC(=O)c1sc2nc(C)ccc2c1Nc1cc(OC)c(OC)c(OC)c1", "pIC50": 6.15}
{"given_smiles": "COC(=O)c1sc2cc(OC)ccc2c1Nc1cc(OC)c(OC)c(OC)c1", "pIC50": 6.06}

----------
# Tested on: PBL
# method_notes: Cytotoxicity against human PBL cells after 72 hrs by MTT assay
# Format: cell-based
pIC50: −log10 of the molar value.
recorded_metric: pIC50

{"given_smiles": "COC(=O)c1sc2cc(OC)ccc2c1Nc1cc(OC)c(OC)c(OC)c1", "value_reported": "< 5.00"}

----------
# Species: Bos taurus
# method_notes: Displacement of [3H]colchicine from bovine brain tubulin at 1 uM after 20 mins by turbidimetric analysis
Each item that follows carries a reported inhibition.
recorded_metric: inhibition (%)

{"given_smiles": "CCOC(=O)c1sc2cc(C)ccc2c1Nc1cc(OC)c(OC)c(OC)c1", "recorded_metric": "inhibition", "unit_label": "%", "value_reported": 58}
{"given_smiles": "COC(=O)c1sc2cc(C)ccc2c1Nc1cc(OC)c(OC)c(OC)c1", "recorded_metric": "inhibition", "unit_label": "%", "value_reported": 71}
{"given_smiles": "COC(=O)c1sc2cc(OC)ccc2c1Nc1cc(OC)c(OC)c(OC)c1", "recorded_metric": "inhibition", "unit_label": "%", "value_reported": 85}
{"given_smiles": "COC(=O)c1sc2nc(C)ccc2c1Nc1cc(OC)c(OC)c(OC)c1", "recorded_metric": "inhibition", "unit_label": "%", "value_reported": 78}
{"given_smiles": "COC(=O)c1sc2c(OC)cccc2c1Nc1cc(OC)c(OC)c(OC)c1", "recorded_metric": "inhibition", "unit_label": "%", "value_reported": 54}
{"given_smiles": "CCOC(=O)c1sc2cc(OC)ccc2c1Nc1cc(OC)c(OC)c(OC)c1", "recorded_metric": "inhibition", "unit_label": "%", "value_reported": 77}
